Tested on: HCT-116
assayProtocol: cells
Format: functional, cell-based
runParameters: Homo sapiens, HCT-116, 48 h
Description: Cytotoxicity against human HCT-116 cells assessed as inhibition of cell growth measured after 48 hrs by MTT assay
pIC50: −log10 of the molar value.
endpoint: pIC50

Cc1c(NC(=O)CN2C(=O)S/C(=C\c3ccc(Cl)cc3)C2=O)c(=O)n(-c2ccccc2)n1C: 4.64

I: COc1ccc(/C=C2\SC(=O)N(CC(=O)Nc3c(C)n(C)n(-c4ccccc4)c3=O)C2=O)cc1
II: Cc1c(NC(=O)NCCN2C(=O)S/C(=C\c3ccc(Cl)cc3)C2=O)c(=O)n(-c2ccccc2)n1C
# returns the entry with the larger pIC50; inputs I and II To answer, give the label that identifies your chosen option.
II
(II: 4.44, I: 4.15)
